biological target: human β2 adrenergic receptor (Homo sapiens); assay: cAMP Flashplate assay in CHO cells recombinantly expressing the human β2 adrenergic receptor (agonist potency); conditions: CHOhβ2 cells, 1 hour incubation, 125I-cAMP Flashplate; data expressed as % Isoprenaline activity, four parameter sigmoid fit
Sequence (P07550 whole entry): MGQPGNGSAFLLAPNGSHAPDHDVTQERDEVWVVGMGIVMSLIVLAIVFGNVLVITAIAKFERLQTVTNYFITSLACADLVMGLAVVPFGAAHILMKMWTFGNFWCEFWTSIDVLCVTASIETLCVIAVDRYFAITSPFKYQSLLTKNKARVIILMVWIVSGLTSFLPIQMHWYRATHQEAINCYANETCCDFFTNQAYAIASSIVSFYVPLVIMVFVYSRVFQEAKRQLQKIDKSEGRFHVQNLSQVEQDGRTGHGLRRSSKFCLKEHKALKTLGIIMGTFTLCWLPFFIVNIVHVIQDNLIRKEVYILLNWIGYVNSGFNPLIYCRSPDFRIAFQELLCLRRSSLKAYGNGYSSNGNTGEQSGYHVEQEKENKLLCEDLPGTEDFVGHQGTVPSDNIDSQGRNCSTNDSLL
Observable: EC50 (nM)
Provide only the numeric value, understood in nM.

query: Param item = C[C@H](Cc1cccc(CC(=O)NC23CC4CC(CC(C4)C2)C3)c1)NC[C@H](O)c1ccc(O)c(CO)c1 [example 1, L-tartrate] ; retrieve measured EC50.
result: 0.076
